ASSAY_TARGET: 5-hydroxytryptamine receptor 1A (Homo sapiens, UniProt P08908)
Sequence (P08908 whole entry): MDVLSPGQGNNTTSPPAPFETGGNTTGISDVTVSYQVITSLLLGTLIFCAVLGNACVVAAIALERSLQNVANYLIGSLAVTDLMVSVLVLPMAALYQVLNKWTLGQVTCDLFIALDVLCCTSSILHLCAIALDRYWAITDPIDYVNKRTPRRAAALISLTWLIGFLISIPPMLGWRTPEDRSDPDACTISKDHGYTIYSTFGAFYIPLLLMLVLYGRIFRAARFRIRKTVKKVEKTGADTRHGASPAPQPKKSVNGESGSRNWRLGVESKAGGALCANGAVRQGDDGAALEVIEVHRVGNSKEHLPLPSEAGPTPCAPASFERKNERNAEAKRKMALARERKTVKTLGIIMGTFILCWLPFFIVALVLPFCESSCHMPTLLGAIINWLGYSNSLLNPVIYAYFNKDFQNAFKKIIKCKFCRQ
PROCEDURE_DETAILS: Agonist activity at human 5HT1A receptor expressed in CHO cells assessed as inhibition of forskolin-induced adenylate cyclase activity
pEC50: −log10 of the molar value.
REPORTED_ENDPOINT: pEC50

Query :: Item under review: O=C1NCc2ccc3c(c21)CC(N(CCCc1c[nH]c2ccc(F)cc12)C1CCC1)CO3 (racemic) . Reported pEC50?
Result :: 6.46

P: O=C1NCc2ccc3c(c21)CC(N(CCCCc1c[nH]c2ccc(F)cc12)CC1CC1)CO3 (racemic)
Q: CCN(CCCc1c[nH]c2ccc(F)cc12)C1COc2c(F)cc3c(c2C1)C(=O)NCC3 (racemic)
R: O=C1NCc2ccc3c(c21)CC(N(CCCc1c[nH]c2ccc(F)cc12)C(=O)c1ccccc1)CO3 (racemic)
S: O=C1NCCc2cc(F)c3c(c21)CC(NCCCc1c[nH]c2ccc(F)cc12)CO3 (racemic)
Query :: Arrange the 4 entries by pEC50 so the values rise. As an answer, provide the labels arranged in the order called for.
Result :: R, P, Q, S
(R: 6.36, P: 7.31, Q: 8.00, S: 8.40)

1: CC(C)N(CCCc1c[nH]c2ccc(F)cc12)C1COc2ccc3c(c2C1)C(=O)NCC3 (racemic)
2: CN(CCCc1c[nH]c2ccc(F)cc12)C1COc2ccc3c(c2C1)C(=O)NC3 (racemic)
3: CN(CCCc1c[nH]c2ccc(F)cc12)C1COc2ccc3c(c2C1)C(=O)NCC3 (racemic)
Query :: Arrange the 3 entries by pEC50 so the values rise. As an answer, provide the labels arranged in the order called for.
Result :: 1, 2, 3

I: CCN(CCCc1c[nH]c2ccc(F)cc12)C1COc2ccc3c(c2C1)C(=O)NCC3 (racemic)
II: O=C1NCc2ccc3c(c21)CC(N(CCCc1c[nH]c2ccc(F)cc12)CC1CC1)CO3 (stereo in doubt; (+)-46)
III: O=C1NCc2ccc3c(c21)CC(NCCCc1c[nH]c2ccc(F)cc12)CO3 (racemic)
IV: O=C1NCCc2cc(F)c3c(c21)CC(N(CCCc1c[nH]c2ccc(F)cc12)CC1CC1)CO3 (racemic)
Query :: Arrange the 4 entries by pEC50 so the values rise. As an answer, provide the labels arranged in the order called for.
Result :: IV, III, II, I
(IV: 7.00, III: 7.21, II: 7.62, I: 8.05)

a: N#Cc1ccc2[nH]cc(CCCCN(CC3CC3)C3COc4ccc5c(c4C3)C(=O)NC5)c2c1 (single isomer, unassigned; (+))
b: CCCN(CCCc1c[nH]c2ccc(F)cc12)C1COc2ccc3c(c2C1)C(=O)NCC3 (racemic)
Query :: Two entries are listed, a and b . Which one carries the higher pEC50? Answer with the label corresponding to your selection.
Result :: a
